target: HLA-DR DRB1*08:02 (Homo sapiens, UniProt P01903+P01911, A100R/A103L/A169T/F76Y/H45Y/I96F/K41T/L162R/M171V/P40S/Q125H/Q178H/Q39Y/Q99D/R218S/R42G/S66Y/V115G/W38E); assay: In vitro HLA binding assay with purified HLA-DR molecules; conditions: purified HLA-DR molecule; high affinity binding = IC50 <1,000 nM
pIC50: −log10 of the molar value. Ends that are not written are not given here.
The following sequences are listed with their measured pIC50 values.
endpointName: pIC50

[[record]]
sequencechain = "GVGLVLYNTEKGRHP [EXP1-P20]"
measurement = 8.03

[[record]]
sequencechain = "EPLIDVHDLISDMIK [EXP1-P10]"
measurement = 5.55

[[record]]
sequencechain = "LGVVSTVLLGGVGLV [EXP1-P18]"
measurement = 5.74

[[record]]
sequencechain = "NANPDADSESNGEPN [EXP1-P25]"
measurement = 5.40

[[record]]
sequencechain = "RKSKYKLATSVLAGLL [EXP1-P15]"
measurement = 4.92

[[record]]
sequencechain = "SVFFLALFFIIFNKE [EXP1-P02]"
measurement = 5.53

[[record]]
sequencechain = "KLATSVLAGLLGVVS [EXP1-P16]"
measurement = 5.94

[[record]]
sequencechain = "VLAGLLGVVSTVLLGGV [EXP1-P17]"
measurement = 7.31

[[record]]
sequencechain = "SKKKNKKGSGEPLID [EXP1-P08]"
measurement = 4.52


---

biological target: HLA-DR DRB3*02:02 (Homo sapiens, UniProt P01903+P79483, A212P/D57E/F66Y/L67A/R103Q/R218S/R40L/S89Y/T80R/V86D/Y55F/Y59H); test: In vitro HLA binding assay with purified HLA-DR molecules; conditions: purified HLA-DR molecule; high affinity binding = IC50 <1,000 nM
Sequence (P01903 26-254 limits assumed): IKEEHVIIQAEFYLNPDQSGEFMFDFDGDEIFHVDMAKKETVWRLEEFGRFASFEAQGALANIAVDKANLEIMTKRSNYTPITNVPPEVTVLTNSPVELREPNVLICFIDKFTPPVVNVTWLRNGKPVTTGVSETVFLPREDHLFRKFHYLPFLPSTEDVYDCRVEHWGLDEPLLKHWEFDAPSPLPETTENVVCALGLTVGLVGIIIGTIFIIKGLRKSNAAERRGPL
Sequence (P79483 30-266 R40L/Y55F/D57E/Y59H/F66Y/L67A/T80R/V86D/S89Y/R103Q/A212P/R218S limits assumed): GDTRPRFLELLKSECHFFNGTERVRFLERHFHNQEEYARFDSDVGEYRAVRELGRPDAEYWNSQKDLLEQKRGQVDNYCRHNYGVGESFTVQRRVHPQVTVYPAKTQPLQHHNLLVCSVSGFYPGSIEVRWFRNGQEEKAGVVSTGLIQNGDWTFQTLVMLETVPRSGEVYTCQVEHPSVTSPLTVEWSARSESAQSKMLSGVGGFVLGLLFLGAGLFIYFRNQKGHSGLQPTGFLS
Ends that are not written are not given here.
Rule: IC50 below 0.5 µM gives yes (1), anything at or above gives no (0).

[[record]]
sequencechain = "VEVNKRKSKYKLATS [EXP1-P14]"
assignedcategory = "no (0)"

[[record]]
sequencechain = "RKSKYKLATSVLAGLL [EXP1-P15]"
assignedcategory = "yes (1)"

[[record]]
sequencechain = "GVGLVLYNTEKGRHP [EXP1-P20]"
assignedcategory = "no (0)"

[[record]]
sequencechain = "VLAGLLGVVSTVLLGGV [EXP1-P17]"
assignedcategory = "no (0)"

[[record]]
sequencechain = "KLATSVLAGLLGVVS [EXP1-P16]"
assignedcategory = "yes (1)"


---

target: HLA-DR DRB1*10:01 (Homo sapiens, UniProt P01903+P01911, A100R/A169T/D57E/F55L/F60V/F69Y/F76Y/I96L/L162R/M171V/P40V/Q260P/Q39E/Q99R/R195Q/R42F/S149N/S66Y/T210M/V115G/V67A/W38E/Y59R/Y61H); experiment: In vitro HLA binding assay with purified HLA-DR molecules; conditions: purified HLA-DR molecule; high affinity binding = IC50 <1,000 nM
Ends that are not written are not given here.
Strictly below 400 nM in IC50: 1. Otherwise: 0.

[[record]]
sequencechain = "RKSKYKLATSVLAGLL [EXP1-P15]"
assignedcategory = 1

[[record]]
sequencechain = "SVFFLALFFIIFNKE [EXP1-P02]"
assignedcategory = 0

[[record]]
sequencechain = "VLAGLLGVVSTVLLGGV [EXP1-P17]"
assignedcategory = 0

[[record]]
sequencechain = "KLATSVLAGLLGVVS [EXP1-P16]"
assignedcategory = 1

[[record]]
sequencechain = "GVGLVLYNTEKGRHP [EXP1-P20]"
assignedcategory = 0

[[record]]
sequencechain = "NANPDADSESNGEPN [EXP1-P25]"
assignedcategory = 0

[[record]]
sequencechain = "VEVNKRKSKYKLATS [EXP1-P14]"
assignedcategory = 1

[[record]]
sequencechain = "LGVVSTVLLGGVGLV [EXP1-P18]"
assignedcategory = 0

